Reported inhibition values for a set of compounds
Biological target: Human immunodeficiency virus type 1 reverse transcriptase (Human immunodeficiency virus 1) (UniProt Q72547)
Experiment: Inhibition of HIV1 recombinant reverse transcriptase p66/p51 expressed in Escherichia coli
Parameters: concentration or dose not given beside the values
Details: concentration not given here
attribute-measured: inhibition

1) COc1ccc([C@@H]2Oc3cc(OC)cc(OC)c3C(=O)[C@H]2c2c(OC)cc(OC)c3c(=O)cc(-c4ccc(OC)c(OC)c4)oc23)cc1    < 30%
2) Cc1ccc([C@@H]2CC(=O)c3c(cc(O)c(-c4c(O)cc(O)c5c4O[C@H](c4ccc(O)cc4)CC5=O)c3O)O2)cc1    < 30%
3) O=C1C[C@@H](c2ccc(O)cc2)Oc2cc(O)cc(O)c21    30%
4) COc1ccc(-c2cc(=O)c3c(OC)cc(OC)c([C@@H]4C(=O)c5c(OC)cc(OC)cc5O[C@H]4c4ccc(OC)cc4)c3o2)cc1    < 30%
5) O=C1c2c(O)cc(O)cc2O[C@@H](c2ccc(O)cc2)[C@@H]1c1c(O)cc(O)c2c(=O)cc(-c3ccc(O)cc3)oc12    30%
6) O=C1C[C@@H](c2ccc(O)cc2)Oc2cc(O)c(-c3c(O)cc4c(c3O)C(=O)C[C@@H](c3ccc(O)cc3)O4)c(O)c21    < 30%
